# assay_remarks: qHTS Assay for NPC1 Promoter Activators; note: nearly all actives have a fitted effect of over 60% in size;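 for activation: reporter is driven by a mutant NPC1 promoter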
# run_parameters: Huh7 NPC1 promoter luciferase reporter, 24 h; series mostly up to 9.22 µM
The whole screen tested about 320,000 compounds, of which about 7,600 (2.4%) were called active. Not shown: some 3% with an inconclusive outcome. Calls come from the whole dose curve; as a rule, active = well fitted activation curve with a large enough effect; inconclusive = small, poorly fitted or top-dose-only effect; inactive = no such curve, though single readings can be large or run the other way. The list comes from a sample in which actives are over-represented; it also holds close analogues and randomly drawn compounds.
I would appreciate it if you answered using one of these outcomes: active, inactive

# fetch the recorded call for Cc1ccc(-n2nc(C)c(C(=O)O)c2-n2cccc2)cc1 here
inactive

So what was the verdict on COc1ccccc1N1CCN(C(=O)C2Cc3ccccc3CN2C(=O)c2ccco2)CC1 (stereo not drawn) in this test?
inactive

Dear all, I need the recorded test outcome for Oc1ccc(N=Cc2sc3ccccc3c2Cl)cc1 , thank you.
inactive

What classification did COc1ccc(N=C(C)c2sc3ccccc3c2O)cc1 end up with in this test?
active

Can you look up the reported call for CNS(=O)(=O)c1cccc(C(=O)OCC(=O)N2c3ccccc3NC(=O)C2(C)C)c1 for me?
inactive

Would you mind telling me which call this test gave S=C(NNC(=S)NC1CC2C=CC1C2)NC1CC2C=CC1C2 (stereo not drawn) ?
inactive

Which outcome was assigned to Cc1cc(C)cc(NC(=O)c2cccc(NC(=O)C3C4CC5OC(=O)C3C5C4)c2)c1 (stereo not drawn) in this test?
inactive

# outcome recorded in this test, key = Cc1ccc(OC(=O)c2c(C)nn(-c3ccccc3)c2C)cc1
active

Field: outcome | Entry: FC(F)Oc1ccccc1C1CC(c2ccc(Br)s2)Nc2ncnn21 (stereo not drawn)
inactive

For O=C(Nc1ccc([N+](=O)[O-])cc1)OCCc1ccccn1 , what call appears in the results of this test?
active

Record lookup: outcome of this test for Cc1nn(C)cc1/C=N/NC(=O)c1sc2ccccc2c1Cl ?
inactive

Test call for this compound, please: O=C(O)c1ccccc1N=N/C(=N/Nc1cc(S(=O)(=O)O)ccc1O)c1ccccc1
inactive

Query: recorded result category for Cc1cc(C)cc(NC(=O)C(c2ccccc2)N2CCN(CC(=O)N3CCCC3)CC2)c1 (stereo not drawn) in this test
inactive

Any idea what this test logged for O=C(Nc1ccon1)c1cccc(Cl)c1 ?
inactive

Tell me the assay call for COCCN(Cc1ccccc1)C(=O)Cc1ccc(S(=O)(=O)N2CCOCC2)s1 please.
inactive

Per the assay record, what outcome was assigned to O=C(Nc1ccon1)c1sc2ccccc2c1Cl ?
active

Please state the recorded outcome for this compound: CN1C(=O)c2ccc(NC(=O)C3CCCCC3)cc2C1=O
inactive

Record lookup: outcome of this test for CC(C)Nc1ccc(-n2nc3ccccc3[n+]2[O-])cc1 ?
active

###

# assay_remarks: qHTS Assay for NPC1 Promoter Activators; note: nearly all actives have a fitted effect of over 60% in size;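 for activation: reporter is driven by a mutant NPC1 promoter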
# run_parameters: Huh7 NPC1 promoter luciferase reporter, 24 h; series mostly up to 9.22 µM
Out of some 320,000 compounds screened, about 7,600 (2.4%) were called active. Inconclusive results (about 3%) are left out. Calls come from the whole dose curve; as a rule, active = well fitted activation curve with a large enough effect; inconclusive = small, poorly fitted or top-dose-only effect; inactive = no such curve, though single readings can be large or run the other way. Shown is part of a subset that was picked to be rich in actives.
Give one outcome, nothing more. List: Yes for active, No for inactive

// return assay outcome for CCN(CC(=O)Nc1ccccc1OC)C(=O)CC1CC2CCC1C2 (configuration not stated)
No

Which outcome did this test record for the compound O=C(CNS(=O)(=O)c1ccc2c(c1)OCCCO2)N1CCN(c2ccc(F)cc2)CC1 ?
No

Called result for CCN(C(=O)COC(=O)CCOc1cccc(C)c1)c1c(N)n(Cc2ccccc2)c(=O)[nH]c1=O
No

Which outcome was assigned to CC(Sc1nnc(C2CC2)n1C1CC1)C(=O)Nc1ccc(C(N)=O)cc1 (configuration not stated) in this test?
No

How was CCCCn1nc(C(=O)Nc2cccc(C(=O)NC3CC3)c2)c2ccccc2c1=O classified in this test?
No

What did the test return for O=C(CSc1nc2ccccc2c(=O)n1-c1ccc(F)cc1)NC1CC1 ?
No

Would you mind telling me which call this test gave O=C(Nc1cccc(C(=O)NC2CC2)c1)c1ccc(F)c(S(=O)(=O)N2CCOCC2)c1 ?
No

Status in this test for COc1ccc2nc(NC(=O)NC3CCCCC3)sc2c1 ?
Yes

What was the test verdict on Cc1ccccc1-c1cc(C(=O)NCc2cccs2)n(CC2CC(c3cccnc3)=NO2)n1 (configuration not stated) ?
No

In this assay, the call recorded for CC(NC(=O)c1ccc(S(=O)(=O)Nc2ccccc2)cc1)c1ccc(S(N)(=O)=O)cc1 (configuration not stated) was what?
No

Tell me the assay call for O=C(COC(=O)c1ccccc1Cl)NC1CCCCCCC1 please.
No

Could you please tell me the result logged for O=C(CSCc1ccccc1)N1CCc2ccccc21 in this assay?
Yes

Per the records of this test, what outcome belongs to COc1ccc(CNC(=O)c2ccc(Br)s2)cc1OC ?
No

What is the recorded call for this compound in the test? O=C(CN1CCN(c2ccccn2)CC1)N1CCc2ccccc21
No

I'd appreciate the recorded outcome for N#Cc1ccccc1S(=O)(=O)N1CCN(C(=O)c2cc(-c3ccccc3)nn2-c2ccccc2)CC1 from this test.
No

Please indicate how the test categorized Cc1cc(O)cc(O)c1C(=O)Cc1cnn(-c2ccccc2)c1 .
No

Query: recorded result category for COC(=O)c1ccc(COC(=O)CNC(=O)c2cccc(OC)c2)o1 in this test
No

Assay result, entry COCCn1c(=NC(=O)c2ccccc2[N+](=O)[O-])sc2cc(S(C)(=O)=O)ccc21 — outcome?
No

Which outcome was assigned to O=C(COC(=O)c1ccc(O)cc1O)NNC(=O)c1cccs1 in this test?
No

What was the test verdict on CC(OC(=O)c1ccccc1NCCO)C(=O)Nc1ccnn1C(C)C (configuration not stated) ?
No

Called result for O=C(CN1C(=O)NC2(CCOc3ccccc32)C1=O)NCc1ccc(F)cc1 (configuration not stated)
No

Entry COc1ccc(OC)c(S(=O)(=O)n2c([N+](=O)[O-])cnc2C)c1 : call = ?
No

Assay outcome for O=C(CN(C(=O)c1csnn1)c1ccc(Br)cc1)NC1CCCC1 : what was it?
No

Look up the recorded call for O=C(CSc1nnc(N2CCOCC2)n1-c1cccc(F)c1)N1CCN(c2ccccn2)CC1 in this test.
No

Check the results log: what was the call for O=C(N/N=C/c1cccc(OCc2ccccc2)c1)c1ccc(Br)o1 ?
No

Please state the recorded outcome for this compound: CCOC(=O)c1ccccc1NC(=O)COC(=O)C(Cc1c[nH]c2ccccc12)NC(C)=O (configuration not stated)
No

Look up the recorded call for NS(=O)(=O)c1ccc(N2C(=O)C3C4CC(C(Br)C4Br)C3C2=O)cc1 (configuration not stated) in this test.
No

Look up the recorded call for COc1cc(C(=O)NNC(=O)CN2C(=O)NC3(CCCC3)C2=O)cc(OC)c1OC in this test.
No

Please indicate how the test categorized CC1CCCC(NC(=O)c2cc(-c3ccncc3)nc3ccccc23)C1C (configuration not stated) .
No

Identify the outcome logged in this assay for the compound shown: CCN1CCN(C(=O)CSc2ccc(C)cc2)CC1
No

Assay result, entry O=C(CSc1nc2[nH]c(=O)[nH]c(=O)c2s1)Nc1cccc(F)c1 — outcome?
No

Which outcome was assigned to CCc1nnc(NC(=O)c2cc(S(=O)(=O)N3CCCCC3)ccc2C)s1 in this test?
No

Kindly provide the recorded test outcome for the following compound: CC(=O)NC(c1cccs1)c1cc(Br)c2cccnc2c1O (configuration not stated)
No

Record lookup: outcome of this test for COc1cccc(-n2c(SCC(=O)NC3CCS(=O)(=O)C3)nc3ccccc3c2=O)c1 (configuration not stated) ?
No

# lookup: test call for CCc1noc(C)c1C(=O)Nc1nc2ccc(OC)cc2s1
No

Please state the recorded outcome for this compound: Cc1ccc(C(=O)c2c(NC(=O)c3ccccc3)sc(C)c2C)cc1
No

So what was the verdict on CN(CC(=O)Nc1c(Cl)cccc1Cl)C(=O)CC1OC(=O)c2ccccc21 (configuration not stated) in this test?
No

Look up the recorded call for C/C(=N\NC(=O)c1ccc(NS(=O)(=O)c2cccs2)cc1)c1ccc2ccccc2c1 in this test.
No

I'd appreciate the recorded outcome for COc1ccc(CC(=O)c2ccc(O)cc2O)cc1OC from this test.
No

# outcome recorded in this test, key = CCCn1c(NC(=O)C23CC4CC(CC(O)(C4)C2)C3)nc2ccccc21
No

For Cc1ccc(OCCC(=O)Nc2ccc(S(=O)(=O)Nc3nccs3)cc2)cc1 , which call appears in the assay record?
No

Hey, what did the test say about COc1ccc2nc(NC(=O)c3ccc(Br)s3)sc2c1 ?
Yes
